- Tested on: human αvβ8-Integrin (Homo sapiens, UniProt P06756+P26012)
- Sequence (P06756 31-992 limits assumed): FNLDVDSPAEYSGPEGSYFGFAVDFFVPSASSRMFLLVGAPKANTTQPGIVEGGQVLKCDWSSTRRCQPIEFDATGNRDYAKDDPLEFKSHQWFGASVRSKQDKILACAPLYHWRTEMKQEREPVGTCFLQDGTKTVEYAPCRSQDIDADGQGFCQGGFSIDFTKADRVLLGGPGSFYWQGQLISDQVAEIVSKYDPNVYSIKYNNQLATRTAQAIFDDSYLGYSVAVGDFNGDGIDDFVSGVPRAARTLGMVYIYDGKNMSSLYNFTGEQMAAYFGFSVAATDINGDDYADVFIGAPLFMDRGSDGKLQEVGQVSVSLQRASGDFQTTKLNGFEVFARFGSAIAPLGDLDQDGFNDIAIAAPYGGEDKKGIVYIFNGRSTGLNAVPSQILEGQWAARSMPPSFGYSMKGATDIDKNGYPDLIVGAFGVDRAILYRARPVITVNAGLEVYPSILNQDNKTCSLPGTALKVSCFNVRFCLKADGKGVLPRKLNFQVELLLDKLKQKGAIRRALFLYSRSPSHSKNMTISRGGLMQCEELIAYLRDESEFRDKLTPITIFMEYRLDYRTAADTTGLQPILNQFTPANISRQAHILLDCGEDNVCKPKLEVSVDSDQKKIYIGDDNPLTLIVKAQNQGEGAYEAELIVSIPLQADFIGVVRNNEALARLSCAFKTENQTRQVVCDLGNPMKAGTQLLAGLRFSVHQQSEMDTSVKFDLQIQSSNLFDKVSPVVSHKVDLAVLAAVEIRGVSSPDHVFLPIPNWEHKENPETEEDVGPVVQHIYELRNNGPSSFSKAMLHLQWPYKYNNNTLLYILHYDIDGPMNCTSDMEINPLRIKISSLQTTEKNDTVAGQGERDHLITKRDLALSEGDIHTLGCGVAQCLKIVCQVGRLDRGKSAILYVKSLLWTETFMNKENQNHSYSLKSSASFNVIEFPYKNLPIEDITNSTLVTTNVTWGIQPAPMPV
- Sequence (P26012 43-684 limits assumed): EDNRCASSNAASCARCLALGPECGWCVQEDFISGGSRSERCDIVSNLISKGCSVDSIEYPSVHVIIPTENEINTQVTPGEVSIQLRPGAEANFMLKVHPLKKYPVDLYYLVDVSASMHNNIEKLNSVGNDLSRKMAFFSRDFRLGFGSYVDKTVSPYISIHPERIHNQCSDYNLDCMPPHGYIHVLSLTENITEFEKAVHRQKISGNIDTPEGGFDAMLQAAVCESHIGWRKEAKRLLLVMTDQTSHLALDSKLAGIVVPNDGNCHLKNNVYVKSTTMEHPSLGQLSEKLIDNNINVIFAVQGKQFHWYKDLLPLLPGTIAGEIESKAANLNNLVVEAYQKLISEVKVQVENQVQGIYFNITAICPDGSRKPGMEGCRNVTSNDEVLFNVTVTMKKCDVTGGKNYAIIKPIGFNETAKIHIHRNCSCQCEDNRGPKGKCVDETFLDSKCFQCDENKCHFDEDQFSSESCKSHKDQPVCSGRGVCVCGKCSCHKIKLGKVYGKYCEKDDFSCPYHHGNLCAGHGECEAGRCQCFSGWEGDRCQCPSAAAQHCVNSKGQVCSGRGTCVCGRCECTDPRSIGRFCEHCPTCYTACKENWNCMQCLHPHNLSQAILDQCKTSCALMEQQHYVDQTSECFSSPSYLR
- Experiment summary: ELISA-like solid-phase binding assay, soluble integrin αvβ8 vs coated LAP (TGF-β)
- Test conditions: referenced to internal standard
pIC50: −log10 of the molar value. Positions of bridges follow the written chain, without caps; N, C: chain ends. Non-standard residues stand in square brackets, D forms with d. Residues, ends and D or L forms follow the SMILES beside them. dPhg = N[C@@H](C(=O)O)c1ccccc1
Measured quantity: pIC50

# input Bench note: what pIC50 did N=C(N)NCCC[C@@H]1NC(=O)[C@H](CCCCNC(=O)CCOCCOCCOCCOCCOCCOCCNC(=O)CCS)NC(=O)[C@@H](Cc2ccccc2)NC(=O)[C@H](CC(=O)O)NC(=O)CNC1=O [c(RGDfK)-Peg-MPA] show?
# output < 5.00

# input Next molecule: N=C(N)c1ccc(N2CCN(C3CCN(CC(=O)O)CC3)CC2)cc1
# output < 5.00

# input And N=C(N)NCCC[C@H](N)C(=O)NCC(=O)N[C@@H](CC(=O)O)C(=O)O ?
# output < 5.00

# input Param item: C[C@H](N)C(=O)N[C@H]1CSSC[C@@H](C(=O)NCC(=O)O)NC(=O)[C@H](Cc2ccccc2)NC(=O)[C@@H]2CSSC[C@H](NC(=O)[C@H](CC(=O)O)NC1=O)C(=O)N[C@@H](CCCNC(=N)N)C(=O)NCC(=O)N[C@@H](CC(=O)O)C(=O)N2 [RGD-4C] (H-ACDCRGDCFCG-OH; disulfide 2-10, 4-8)
# output < 5.00

# input Again, but for N=C(N)NCCC[C@@H]1NC(=O)CNC(=O)C[C@@H](C(=O)O)NC(=O)[C@@H](c2ccccc2)NC(=O)[C@@H](CCCCN)NC1=O [c(phgisoDGRk)] (GR[dK][dPhg]D-OH; lactam N-5)
# output 7.11

* * *

- Tested on: α5β1 integrin (Homo sapiens, UniProt P05556+P08648)
- Sequence (P08648 42-995 limits assumed): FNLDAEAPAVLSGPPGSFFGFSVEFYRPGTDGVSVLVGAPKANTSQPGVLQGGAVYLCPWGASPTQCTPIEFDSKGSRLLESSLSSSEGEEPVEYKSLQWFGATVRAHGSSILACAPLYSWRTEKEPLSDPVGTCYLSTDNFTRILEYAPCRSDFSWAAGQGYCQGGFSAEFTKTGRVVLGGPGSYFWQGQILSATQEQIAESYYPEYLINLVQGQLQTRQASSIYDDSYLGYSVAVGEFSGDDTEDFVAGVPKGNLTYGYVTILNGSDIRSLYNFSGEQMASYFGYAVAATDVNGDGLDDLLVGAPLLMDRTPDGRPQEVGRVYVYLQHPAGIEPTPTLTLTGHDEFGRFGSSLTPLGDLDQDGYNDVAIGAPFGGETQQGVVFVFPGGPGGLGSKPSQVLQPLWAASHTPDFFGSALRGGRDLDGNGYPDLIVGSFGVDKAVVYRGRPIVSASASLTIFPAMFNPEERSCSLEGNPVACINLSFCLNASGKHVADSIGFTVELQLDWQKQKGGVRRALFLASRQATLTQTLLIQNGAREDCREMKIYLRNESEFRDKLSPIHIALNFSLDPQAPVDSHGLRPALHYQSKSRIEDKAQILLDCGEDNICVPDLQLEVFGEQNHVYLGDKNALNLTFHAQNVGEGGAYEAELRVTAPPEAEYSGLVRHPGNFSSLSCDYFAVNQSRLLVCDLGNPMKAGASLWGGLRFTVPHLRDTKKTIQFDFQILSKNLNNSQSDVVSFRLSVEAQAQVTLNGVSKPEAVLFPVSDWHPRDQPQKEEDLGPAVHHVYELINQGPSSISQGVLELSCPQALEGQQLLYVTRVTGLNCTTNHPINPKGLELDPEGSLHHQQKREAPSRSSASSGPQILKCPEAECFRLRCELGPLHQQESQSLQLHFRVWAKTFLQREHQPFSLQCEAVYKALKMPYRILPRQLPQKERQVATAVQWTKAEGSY
- Sequence (P05556 21-728 limits assumed): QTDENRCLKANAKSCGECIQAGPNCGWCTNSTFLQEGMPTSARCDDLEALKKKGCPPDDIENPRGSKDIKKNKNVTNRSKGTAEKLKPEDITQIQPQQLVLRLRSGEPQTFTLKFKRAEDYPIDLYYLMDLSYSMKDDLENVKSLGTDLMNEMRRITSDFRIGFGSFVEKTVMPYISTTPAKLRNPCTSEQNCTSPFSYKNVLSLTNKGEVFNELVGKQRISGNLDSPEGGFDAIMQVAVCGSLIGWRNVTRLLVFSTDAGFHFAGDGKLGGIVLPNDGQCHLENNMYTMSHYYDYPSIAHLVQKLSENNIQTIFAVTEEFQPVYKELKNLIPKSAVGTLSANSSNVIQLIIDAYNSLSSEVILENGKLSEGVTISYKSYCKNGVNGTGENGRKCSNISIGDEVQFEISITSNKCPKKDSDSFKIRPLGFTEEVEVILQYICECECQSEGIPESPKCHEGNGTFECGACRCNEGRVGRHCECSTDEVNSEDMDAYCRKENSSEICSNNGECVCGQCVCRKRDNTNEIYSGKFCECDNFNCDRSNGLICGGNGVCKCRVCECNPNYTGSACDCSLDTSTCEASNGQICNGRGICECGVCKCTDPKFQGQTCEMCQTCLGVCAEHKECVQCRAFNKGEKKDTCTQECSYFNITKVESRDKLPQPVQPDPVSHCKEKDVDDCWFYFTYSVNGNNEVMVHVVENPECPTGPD
- Experiment summary: ELISA-like solid-phase binding assay, soluble integrin α5β1 vs coated fibronectin
- Set-up: purchased R&D
- Test conditions: coated fibronectin, soluble integrin; referenced to internal standard; read-out: IC50 α5β1
Positions of bridges follow the written chain, without caps; N, C: chain ends. Non-standard residues stand in square brackets, D forms with d. Residues, ends and D or L forms follow the SMILES beside them. Groups on a side chain read outwards from the residue. *: point of attachment. X2 = NC(=O)COCC(=O)NCCOCCOCCOCCN*; dPhg = N[C@@H](C(=O)O)c1ccccc1; AEEA = NCCOCCOCC(=O)O; Mpa = O=C(O)CCS
Measured quantity: pIC50
Convention used: pIC50 is expressed as -log10 of the molar concentration.

# input Value lookup for pIC50; key = NCCCC[C@H](NC(=O)[C@@H]1CCCN1C(=O)[C@H](CO)NC(=O)[C@H](CC(=O)O)NC(=O)CNC(=O)[C@H](CCCN=C(N)N)NC(=O)CN)C(=O)O
# output 7.18

# input Likewise for N=C(N)NCCC[C@@H]1NC(=O)CNC(=O)C[C@@H](C(=O)O)NC(=O)[C@@H](c2ccccc2)NC(=O)[C@@H](CCCCNC(=O)COCCOCCNC(=O)CCS)NC1=O [c(phgisoDGRk)-Peg-MPA] (GR[dK]([AEEA-Mpa])[dPhg]D-OH; lactam N-5) ?
# output 7.51

# input How about this compound: N=C(N)NCCC[C@@H]1NC(=O)[C@H](CCCCNC(=O)CCOCCOCCOCCOCCOCCOCCNC(=O)CCS)NC(=O)[C@@H](Cc2ccccc2)NC(=O)[C@H](CC(=O)O)NC(=O)CNC1=O [c(RGDfK)-Peg-MPA]
# output 6.70

# input And the next one, N=C(N)NCCC[C@H](NC(=O)CN)C(=O)NCC(=O)N[C@@H](CC(=O)O)C(=O)N[C@@H](CC(N)=O)C(=O)N1CCC[C@H]1C(=O)O [GRGDNP] (H-GRGDNP-OH) ?
# output 7.47

# input Likewise for N=C(N)NCCC[C@@H]1NC(=O)[C@@H]2CSSC[C@H](NC(=O)[C@H](CC(=O)O)NC(=O)CNC1=O)C(=O)N[C@@H](Cc1ccccc1)C(=O)N[C@H](C(=O)NCCOCCOCCOCCNC(=O)COCC(N)=O)CSCC(=O)N[C@@H](CCCCN)C(=O)N2 [NC100717] ({CH2CO}-KCRGDCFC-X2; disulfide 2-6; thioether N-8; N-terminus and C-terminus assumed) ?
# output 6.09
